The reported measurements were obtained from patent US9914736B2.

TESTED ON: human TrkA receptor (Homo sapiens (Human), UniProt P04629)
Sequence (P04629 33-796): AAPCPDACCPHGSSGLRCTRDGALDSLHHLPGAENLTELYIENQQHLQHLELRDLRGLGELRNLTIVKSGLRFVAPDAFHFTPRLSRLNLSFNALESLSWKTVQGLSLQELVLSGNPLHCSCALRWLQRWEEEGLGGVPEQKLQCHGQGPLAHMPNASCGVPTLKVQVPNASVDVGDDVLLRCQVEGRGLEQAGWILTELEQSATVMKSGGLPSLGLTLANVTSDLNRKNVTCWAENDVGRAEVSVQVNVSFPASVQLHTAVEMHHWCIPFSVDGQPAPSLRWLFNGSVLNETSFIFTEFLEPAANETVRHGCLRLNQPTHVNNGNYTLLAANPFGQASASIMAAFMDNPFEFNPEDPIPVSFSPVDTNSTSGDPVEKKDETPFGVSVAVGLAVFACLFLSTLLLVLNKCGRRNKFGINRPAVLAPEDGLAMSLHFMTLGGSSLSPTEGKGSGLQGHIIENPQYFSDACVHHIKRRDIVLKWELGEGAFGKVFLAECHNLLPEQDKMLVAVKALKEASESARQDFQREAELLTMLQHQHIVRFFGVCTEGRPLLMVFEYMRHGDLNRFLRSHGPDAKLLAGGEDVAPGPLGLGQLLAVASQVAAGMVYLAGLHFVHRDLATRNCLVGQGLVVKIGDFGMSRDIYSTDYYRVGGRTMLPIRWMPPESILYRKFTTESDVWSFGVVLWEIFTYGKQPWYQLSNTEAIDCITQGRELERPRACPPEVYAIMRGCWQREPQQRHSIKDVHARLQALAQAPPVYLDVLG
PROTOCOL DESCRIPTION: DiscoverX PathHunter TrkA functional assay
EXPERIMENTAL SETUP: U2OS cells expressing human TrkA-ProLink, Shc1-EA and p75NTR; compound 1 h, then NGF at ~80% of maximal response for 3 h; luminescence
Assign a class from recorded IC50; defined classes: LOW = under 3 nM, MID = from 3 nM up to 50 nM, HIGH = 50 nM and over

Problem: # bin label for `NC(=O)c1ccc(-c2cc(NC(=O)c3ccc(C(F)(F)F)cc3Cl)n(-c3ccccc3)n2)nc1`
Result: MID

Problem: Determine which band this molecule sits in: `O=C(Nc1cc(-c2ccc(=O)[nH]n2)nn1-c1ccccc1)c1ccc(C(F)(F)F)c(-c2ccn(CC(F)(F)F)n2)c1`
Result: HIGH

Problem: The entry to classify is `Cn1ccc(-c2cc(C(=O)Nc3cc(Cc4nnn(CCO)n4)nn3-c3ccc(F)cc3)ccc2C(F)(F)F)n1` ; which class holds it?
Result: MID

Problem: Sort into band: `O=C(Nc1cc(-c2ccncc2)nn1-c1ccccc1)c1ccc(C(F)(F)F)c(-n2cccn2)c1`
Result: MID

Problem: Each molecule maps to one class by IC50. Which class for `O=C(Nc1cc(-c2ccncc2)nn1-c1ccccc1)c1cc(-c2cc[nH]n2)c(C(F)(F)F)cc1Cl` ?
Result: LOW

Problem: Exercise: read the entry `NC(=O)c1ccnc(-c2cc(NC(=O)c3cc(-c4ncccn4)c(C(F)(F)F)cc3F)n(-c3ccc(F)cc3)n2)n1` and state which class it falls under.
Result: MID

Problem: For this molecule, which bin applies? `Cc1csc(-c2cc(C(=O)Nc3cc(-c4cnn(C)c4)nn3-c3cc(C)[nH]n3)ccc2C(F)(F)F)n1`
Result: LOW

Problem: Entry `O=C(Nc1cc(Cc2n[nH]c(=O)s2)nn1-c1ccc(F)cc1)c1cc(-c2ncccn2)c(C(F)(F)F)cc1F` belongs to which category?
Result: MID

Problem: For `Cc1cccnc1-c1cc(C(=O)Nc2cc(-c3ccncc3)nn2-c2ccc(F)cc2)ccc1C(F)(F)F` , which IC50 bin applies?
Result: HIGH

Problem: Bin this entry: `Cn1ccc(-c2cc(C(=O)Nc3cc(-c4ccccc4)nn3C)ccc2C(F)(F)F)n1`
Result: HIGH

Problem: Hello team, could you let me know which band the following molecule falls into: `NCc1cccc(-c2cc(NC(=O)c3cc(-c4ncccn4)c(C(F)(F)F)cc3F)n(-c3ccc(F)cc3)n2)c1`
Result: LOW

Problem: State the band of `Cn1nnnc1Cc1cc(NC(=O)c2cc(-c3ncccn3)c(C(F)(F)F)cc2F)n(-c2ccc(F)cc2)n1`
Result: LOW
